- system: T1, Human CD27 ECD truncated (ECD 1-121, cleavage site, His6) (human)
- T1 construct: also called human CD27 ECD with His Tag; CD27-His
- T1 chain: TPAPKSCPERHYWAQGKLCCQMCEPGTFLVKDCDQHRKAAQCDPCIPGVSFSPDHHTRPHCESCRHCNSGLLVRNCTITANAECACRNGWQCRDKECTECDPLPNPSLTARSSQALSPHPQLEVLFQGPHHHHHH
- measurement-description: ProteOn SPR, purified mAb, CD27-His
measure: koff (s⁻¹)
Express the result in s⁻¹ but write the number alone.

See these solved cases before continuing.
M673 (antibody, V domains shown, isotype not restated (path 2); also called H256,L217) VH: QVQLVQSGAEVKKPGASVKVSCKASGYAFSSSWMNWVRQAPGQGLEWMGRIYSGDADTNYNQKFKGRVTMTRDTSTSTVYMELSSLRSEDTAVYYCARSDYYGDYGFAYWGQGTLVTVSS VL: DIQMTQSPSSLSASVGDRVTITCKASQSVDYAHESFMNWYQQKPGKAPKLLIYAASNLESGVPSRFSGSGSGTDFTLTISSLQPEDFATYYCQQSNEDPYTFGQGTKVEIK	0.000189
M669 (antibody, V domains shown, isotype not restated (path 2); also called H256,L266) VH: QVQLVQSGAEVKKPGASVKVSCKASGYAFSSSWMNWVRQAPGQGLEWMGRIYSGDADTNYNQKFKGRVTMTRDTSTSTVYMELSSLRSEDTAVYYCARSDYYGDYGFAYWGQGTLVTVSS VL: DIQMTQSPSSLSASVGDRVTITCKASQSVDYAGESFMNWYQQKPGKAPKLLIYAASNLESGVPSRFSGSGSGTDFTLTISSLQPEDFATYYCQQSNEDPYTFGQGTKVEIK	0.000145

[ask] // query koff value for entry M169 (antibody, V domains shown, isotype not restated (path 2 mAbs were IgG4 Ser to Pro, Ala/Ala / kappa); also called H221, L219; CM169) VH: EVQLVQSGAEVKKPGESLKISCKGSGYAFSSSWMNWVRQMPGKGLEWMGRIYSGDGDTNYNGKFKGQVTISADKSISTAYLQWSSLKASDTAMYYCARSDYYGDYGFAYWGQGTLVTVSS VL: DIQMTQSPSSLSASVGDRVTITCKASQSVDYAGDSFMNWYQQKPGKAPKLLIYAASNLESGVPSRFSGSGSGTDFTLTISSLQPEDFATYYCQQSNEDPYTFGQGTKVEIK
[reply] 0.000139

[ask] // query koff value for entry M668 (antibody, V domains shown, isotype not restated (path 2); also called H255,L266) VH: QVQLVQSGAEVKKPGASVKVSCKASGYAFSSSWMNWVRQAPGQGLEWMGRIYSGDADTNYAQKFKGRVTMTRDTSTSTVYMELSSLRSEDTAVYYCARSDYYGDYGFAYWGQGTLVTVSS VL: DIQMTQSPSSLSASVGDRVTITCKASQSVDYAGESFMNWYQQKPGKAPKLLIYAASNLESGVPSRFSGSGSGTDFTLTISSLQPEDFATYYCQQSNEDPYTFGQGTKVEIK
[reply] 0.000129

[ask] // query koff value for entry M672 (antibody, V domains shown, isotype not restated (path 2); also called H255,L217) VH: QVQLVQSGAEVKKPGASVKVSCKASGYAFSSSWMNWVRQAPGQGLEWMGRIYSGDADTNYAQKFKGRVTMTRDTSTSTVYMELSSLRSEDTAVYYCARSDYYGDYGFAYWGQGTLVTVSS VL: DIQMTQSPSSLSASVGDRVTITCKASQSVDYAHESFMNWYQQKPGKAPKLLIYAASNLESGVPSRFSGSGSGTDFTLTISSLQPEDFATYYCQQSNEDPYTFGQGTKVEIK
[reply] 0.000264

[ask] // query koff value for entry M670 (antibody, V domains shown, isotype not restated (path 2); also called H257,L266) VH: EVQLVQSGAEVKKPGESLKISCKGSGYAFSSSWMNWVRQMPGKGLEWMGRIYSGDADTNYAQKFKGQVTISADKSISTAYLQWSSLKASDTAMYYCARSDYYGDYGFAYWGQGTLVTVSS VL: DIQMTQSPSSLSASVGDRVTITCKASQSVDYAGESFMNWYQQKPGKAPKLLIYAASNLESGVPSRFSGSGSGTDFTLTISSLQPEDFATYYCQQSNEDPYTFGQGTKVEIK
[reply] 0.000113

[ask] // query koff value for entry M166 (antibody, human IgG4, V domains shown, also called H196,L217) VH: QVQLVQSGAEVKKPGASVKVSCKASGYAFSSSWMNWVRQAPGQGLEWMGRIYSGDGDTNYNGKFKGRVTMTRDTSTSTVYMELSSLRSEDTAVYYCARSDYYGDYGFAYWGQGTLVTVSS VL: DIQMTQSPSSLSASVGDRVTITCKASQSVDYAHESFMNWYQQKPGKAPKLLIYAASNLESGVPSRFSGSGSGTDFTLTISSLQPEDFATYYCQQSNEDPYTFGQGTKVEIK
[reply] 0.000234

[ask] // query koff value for entry M671 (antibody, V domains shown, isotype not restated (path 2); also called H258,L266) VH: EVQLVQSGAEVKKPGESLKISCKGSGYAFSSSWMNWVRQMPGKGLEWMGRIYSGDADTNYNQKFKGQVTISADKSISTAYLQWSSLKASDTAMYYCARSDYYGDYGFAYWGQGTLVTVSS VL: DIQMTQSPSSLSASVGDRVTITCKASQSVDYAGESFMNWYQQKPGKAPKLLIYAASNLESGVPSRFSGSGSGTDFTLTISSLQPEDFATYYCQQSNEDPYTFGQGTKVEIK
[reply] 9.73e-05

[ask] // query koff value for entry M160 (antibody, human IgG4, V domains shown, also called H196,L219) VH: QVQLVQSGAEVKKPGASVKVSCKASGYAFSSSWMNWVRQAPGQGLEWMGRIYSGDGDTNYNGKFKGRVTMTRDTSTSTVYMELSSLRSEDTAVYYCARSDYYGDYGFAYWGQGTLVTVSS VL: DIQMTQSPSSLSASVGDRVTITCKASQSVDYAGDSFMNWYQQKPGKAPKLLIYAASNLESGVPSRFSGSGSGTDFTLTISSLQPEDFATYYCQQSNEDPYTFGQGTKVEIK
[reply] 0.000223
